# IC50 per entry
# Tested on: HDAC (nuclear fraction of Hela cells)
# ASSAY_NOTES: Assay of enzyme inhibition of HDAC (BIOMOL Kit)
# Format: biochemical
# CONDITIONS_USED: substrate 200 μM, 15 min at RT, fluorescence

Record excerpt, results attached:
COMPOUND: O=C(/C=C/c1ccc2c(c1)C(=O)CC1(CCN(CCc3ccccc3)C1)O2)NO (racemic)
ASSAY_VALUE: ≤ 100 nM
//
COMPOUND: O=C(/C=C/c1ccc2c(c1)C(=O)NC1(CCCN(CCc3ccccc3)C1)O2)NO (racemic)
ASSAY_VALUE: ≤ 100 nM
//
COMPOUND: O=C(/C=C/c1ccc2c(c1)C(=O)CC1(CN(C(=O)c3ccccc3)C1)O2)NO
ASSAY_VALUE: ≤ 100 nM

(Q) I am curious: what IC50 value has been reported for O=C(/C=C/c1ccc2c(c1)/C(=N\OCc1ccccc1)CC1(CCCN(CCc3ccccc3)C1)O2)NO (stereo not shown) ?
(A) ≥ 1000 nM

(Q) Value lookup for IC50; key = CO/N=C1/CC2(CCCN(Cc3ccc(F)cc3)C2)Oc2ccc(/C=C/C(=O)NO)cc21 (stereo not shown)
(A) ≥ 1000 nM

(Q) IC50 for O=C(/C=C/c1ccc2c(c1)C(=O)CC1(CCCN(Cc3ccccc3)C1)O2)NO (single isomer, unassigned; (-)) [Example 17] ?
(A) ≤ 100 nM

(Q) Reported IC50, compound "Cn1cc(CN2CC3(CC(=O)c4cc(/C=C/C(=O)NO)ccc4O3)C2)c2ccccc21" : ____
(A) ≤ 100 nM
